test: Blood levels after oral administration in mice; conditions: mouse, 416 mg/kg
Starred links: 1 amine or outer side, 2 acyl side, 3 side chain; linkers in the order of their positions; H or OH if unused. Positions of bridges follow the written chain, without caps; N, C: chain ends. Non-standard residues stand in square brackets, D forms with d. Residues, ends and D or L forms follow the SMILES beside them. *: point of attachment. Orn(4R-OH,5R-OH) = O=C([C@H](C[C@@H](O)[C@@H](O)N[*:3])N[*:1])[*:2]; hTyr(3S-OH,4S-OH) = N[C@H](C(=O)O)[C@H](O)[C@@H](O)c1ccc(O)cc1; Pro(3S-OH,4S-Me) = C[C@H]1CN[C@H](C(=O)O)[C@H]1O; Benzoyl(4-octyloxy) = CCCCCCCCOc1ccc(C(=O)*)cc1; Hyp = O=C(O)[C@@H]1C[C@@H](O)CN1
readout-name: Cmax (ng/mL)
API: value field is a number in ng/mL; no unit string.

Input: Please report the measured Cmax for CCCCCCCCOc1ccc(C(=O)N[C@H]2C[C@@H](O)[C@@H](O)NC(=O)[C@@H]3[C@@H](O)[C@@H](C)CN3C(=O)[C@H]([C@@H](C)O)NC(=O)[C@H]([C@H](O)[C@@H](O)c3ccc(O)cc3)NC(=O)[C@@H]3C[C@@H](O)CN3C(=O)[C@H]([C@@H](C)O)NC2=O)cc1 [drawing 181] ({Benzoyl(4-octyloxy)}-[Orn(4R-OH,5R-OH)]T[Hyp][hTyr(3S-OH,4S-OH)]T[Pro(3S-OH,4S-Me)]; lactam 1-C)
Output: 23000
